- System: 521955-158-R2-J5-PDC complex spheroid viability
- METHOD DESCRIPTION: Anticancer human tumor 521955-158-R2-J5-PDC patient-derived pancreatic carcinoma cell line growth inhibition [GQUAD]
- TEST CONDITIONS: second compound 0.316 µM; first compound 0.0316 µM; hits give low values
Just so you know, the groups by viability, T/C go like this: bottom = under 40%, middle = from 40% up to 90%, top = 90% and over

Example results:
| MOLECULE | CLASS NAME |
| --- | --- |
| Cc1cccc(N(C)C(=O)C2C(O)CCN2c2nc(C)cc(C(F)(F)F)c2C#N)c1 (stereo unspecified) + Cc1cnc(CNC(=O)c2c(=O)c3ccc(N4CCCN(C)CC4)nc3n3c2sc2ccccc23)cn1 | middle |
| C=CCn1c(=O)c2cnc(Nc3ccc(N4CCN(C)CC4)cc3)nc2n1-c1cccc(C(C)(C)O)n1 + Cc1cnc(CNC(=O)c2c(=O)c3ccc(N4CCCN(C)CC4)nc3n3c2sc2ccccc23)cn1 | bottom |
| C=CCn1c(=O)c2cnc(Nc3ccc(N4CCN(C)CC4)cc3)nc2n1-c1cccc(C(C)(C)O)n1 + Cc1[nH]c2ccc(F)cc2c1-c1nc2c3cccnc3c3ncccc3c2[nH]1 | middle |

Would you mind sorting CC1COCCN1c1cc(-c2ccnn2C)c2ccnc(-c3ccn[nH]3)c2n1 (stereo unspecified) + Cc1[nH]c2ccc(F)cc2c1-c1nc2c3cccnc3c3ncccc3c2[nH]1 into the appropriate category?
middle

Would you mind sorting COc1cc(C2c3cc4c(cc3C(OC3OC5COC(C)OC5C(O)C3O)C3COC(=O)C23)OCO4)cc(OC)c1O (stereo unspecified) + Cc1[nH]c2ccc(F)cc2c1-c1nc2c3cccnc3c3ncccc3c2[nH]1 into the appropriate category?
top

---

- Tested on: 521955-158-R2-J5-PDC complex spheroid viability
- METHOD DESCRIPTION: Anticancer human tumor 521955-158-R2-J5-PDC cell line growth inhibition [GQUAD];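 note: spheroids exposed to agents for one week before reading; 100% = DMSO vehicle control viability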
- TEST CONDITIONS: second compound 0.316 µM; first compound 0.0316 µM; hits give low values
PARAMETER: viability, T/C (%)
Supply the numeric figure in %, leaving out any unit text.

| COMPOUND | PARAMETER | QUANTITY UNIT | ASSAY RESULT |
| --- | --- | --- | --- |
| CC(C)n1c(=O)n(C)c2cnc3cc(F)c(-c4ccc(OCCCN5CCCCC5)nc4)cc3c21 + Cc1[nH]c2ccc(F)cc2c1-c1nc2c3cccnc3c3ncccc3c2[nH]1 | viability, T/C | % | 105 |
| CC(C)(O)C1CCC(Nc2ccc3ncc(-c4cccc(C(F)(F)F)c4)n3n2)CC1 (stereo unspecified) + CN(C)c1ccc(Nc2c3ccc(NC(=O)CCN4CCCC4)cc3nc3cc(NC(=O)CCN4CCCC4)ccc23)cc1 | viability, T/C | % | 106 |
| O=C(NO)c1cnc(N2CCN(S(=O)(=O)c3ccc4ccccc4c3)CC2)nc1 + Cc1[nH]c2ccc(F)cc2c1-c1nc2c3cccnc3c3ncccc3c2[nH]1 | viability, T/C | % | 100 |
| Cc1[nH]c2ccccc2c1CCNCc1ccc(/C=C/C(=O)NO)cc1 + Cc1cnc(CNC(=O)c2c(=O)c3ccc(N4CCCN(C)CC4)nc3n3c2sc2ccccc23)cn1 | viability, T/C | % | 37.1 |
| O=C(NO)c1cnc(N2CCN(S(=O)(=O)c3ccc4ccccc4c3)CC2)nc1 + CN(C)c1ccc(Nc2c3ccc(NC(=O)CCN4CCCC4)cc3nc3cc(NC(=O)CCN4CCCC4)ccc23)cc1 | viability, T/C | % | 118 |

Given the compound CC(C)n1c(=O)n(C)c2cnc3cc(F)c(-c4ccc(OCCCN5CCCCC5)nc4)cc3c21 + CN(C)c1ccc(Nc2c3ccc(NC(=O)CCN4CCCC4)cc3nc3cc(NC(=O)CCN4CCCC4)ccc23)cc1 , write its reported viability, T/C.
101

All figures here come from PubChem BioAssay AID2060495.
